molecular target: SARS-CoV-2 spike RBD (WT) (Severe acute respiratory syndrome …, UniProt P0DTC2); experiment: ELISA; design: unit not given here
List of binding score values.
Format: numeric value only, no unit, no commentary.

| binder | recorded.metric | measured.number |
| --- | --- | --- |
| C2743 (antibody, V domains shown) VH: QVQLVQSGAEVKKPGASVKVSCKASGYTFTSYGISWVRQAPGQGLEWMGWISAYNGNTNYAQKLQGRVTMTTDTSTSTAYMELRSLRSDDTAVYYCARDFGELATPLDYWGQGTLVTVSS VL: EIVLTQSPATLSLSPGERATLSCRASQSVSSYLAWYQQKPGQAPRLLIYDASNRATGIPARFSGSGSGTDFTLTISSLEPEDFAVYYCQQRSNSLTFGGGTKVEIK | binding score | 14.3 |

# evaluate next
Item under review: D124 (antibody, V domains shown) VH: QVQLQQWGAGLLKPSETLSLTCAVYGGPFTGYSWTWIRQSPGKGLEWIGEINHSGSTSYNPSLQSRVTFSIDTSKNQFSLELSSVTAADTAVYFCARGNRNRYHTSDWYYYGMDVWGQGTTVTVSS VL: DIQMTQSPSSLSAYVGDRVTITCRASQGINTYLAWYQQKPGKVPRLLIYGASTLQSGVPSRFSGSGSGTEFTLTISSLQPEDIATYYCQKYNSAPRTFGQGTKVEIK . Reported binding score?
2540
